Sourced from paper PMC5540273

Each entry below lists one item and its recorded %Inh value.
- System: LZK
- Construct: gene MAP3K13
- protocol conditions: concentration: 1 μM, replicates: in singlicate; n = 1;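 note: KINOMEscan kinase panel screen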
Expressed in %, but write only the number.

>>> df
                                   compound  system_under_test  recorded_value
0  CCC(=O)c1c(-c2ccccc2)c2cc(Cl)ccc2c(=O)n1Cc1cc(S(C)(=O)=O)n(CC(F)F)n1                LZK               0
1  CCS(=O)(=O)c1ccc(OC)c(Nc2ncc(-c3ccc(F)cc3)o2)c1.Cl                LZK               0
2  O=C(Nc1ccc2c(c1)OCO2)NC1CCN(c2ccnc(NCc3ccc(F)cc3)n2)CC1                LZK               0
3  Cc1ccccc1COc1cc(-n2cnc3cc(Cl)ccc32)sc1C(N)=O                LZK               0
4  COc1cc2nccc(Nc3ccc(OCc4ccc(NC(C)=O)cc4)cc3)c2cc1OC.Cl                LZK              24

Ask: %Inh lookup needed for COc1ccc(CNC(=O)NC2CCN(c3ccnc(Nc4ccc(F)cc4)n3)C2)cc1 (stereo not drawn) , thanks.
Reply: 71

Ask: And the next one, CCCC(=O)Nc1n[nH]c2ncc(-c3cccc4ccccc34)cc12 ?
Reply: 0

Ask: And the next one, Nc1ncnc2c1ncn2-c1cccc(F)c1 ?
Reply: 13

Ask: And the next one, CC(C)(C)c1ccc(C(=O)Nc2cn3cc(-c4ccccc4)ccc3n2)cc1 ?
Reply: 0

----------
- Tested on: ERK4
- Construct: gene MAPK4
- protocol conditions: concentration: 1 μM, replicates: in singlicate; n = 1
readout type: %Inh (%)
Expressed in %, but write only the number.

Examples with their reported %Inh follow.
In [3]: df
Out[3]:
                                   compound  readout_type  quantity_unit  recorded_value
0  COc1ccc(CNC(=O)NC2CCN(c3ccnc(Nc4ccc(F)cc4)n3)C2)cc1 (stereo not drawn)          %Inh              %               0
1      CN1C(=O)C(Nc2ccccc2)=C(c2ccccc2)C1=O          %Inh              %              31
2  Cc1nnc(-c2ccc(C)c(-c3ccc(C(=O)O)cc3)c2)o1          %Inh              %               0
3             Nc1ncnc2c1ncn2-c1cccc2ccccc12          %Inh              %               0
4  Cc1ccc(-c2ccc3c(ccc4sc5c(c43)NC[C@@H](C)N=C5N(C)C)n2)cn1          %Inh              %              14

Ask: %Inh lookup needed for Nc1ncnc2c1ncn2-c1cccc(F)c1 , thanks.
Reply: 2

Ask: And the next one, COC(=O)c1c(-c2ccccc2)c2cc(Br)ccc2c(=O)n1Cc1ccc(S(C)(=O)=O)cc1 ?
Reply: 3

Ask: And the next one, Cc1ccccc1COc1cc(-n2cnc3cc(Cl)ccc32)sc1C(N)=O ?
Reply: 0

Ask: And the next one, Cc1nnc(-c2ccc3ncn(-c4ccc(S(C)=O)cc4)c3c2)o1 (stereo not drawn) ?
Reply: 15
